The values you see were collected from patent US20200339680A1.

- target.or.test.system: T1, human TMEM106B (human, UniProt Q9NUM4 2-274)
- T1 construct: full-length, transiently expressed on HEK293 cells, or natively expressed on HeLa, U251 and A549 cells (the cell is named under assay); also the source of the Pepscan peptides; also called huTMEM106B; huTMEM
- protocol.text: FACS HeLa
value.kind: MFI
Answer with the number, then the unit.

Would you kindly share the measured MFI for TM-5 (antibody, V domains shown) VH: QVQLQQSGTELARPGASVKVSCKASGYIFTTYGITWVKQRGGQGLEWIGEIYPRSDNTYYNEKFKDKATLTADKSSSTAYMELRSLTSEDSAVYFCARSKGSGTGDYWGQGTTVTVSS VL: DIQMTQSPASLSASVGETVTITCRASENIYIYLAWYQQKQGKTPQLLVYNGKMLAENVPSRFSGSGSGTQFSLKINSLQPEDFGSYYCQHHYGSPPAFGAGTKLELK ?
1740 MFI

Same thing, different binder: TM-13 (antibody, V domains shown) VH: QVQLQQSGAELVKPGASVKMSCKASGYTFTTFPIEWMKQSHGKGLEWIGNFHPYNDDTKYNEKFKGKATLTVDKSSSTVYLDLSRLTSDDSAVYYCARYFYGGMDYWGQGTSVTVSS VL: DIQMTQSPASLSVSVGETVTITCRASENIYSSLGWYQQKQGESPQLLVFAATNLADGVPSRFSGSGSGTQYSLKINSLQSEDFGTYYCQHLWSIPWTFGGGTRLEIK
1380 MFI

---
Would you kindly share the measured MFI for TM-23 (antibody, V domains shown) VH: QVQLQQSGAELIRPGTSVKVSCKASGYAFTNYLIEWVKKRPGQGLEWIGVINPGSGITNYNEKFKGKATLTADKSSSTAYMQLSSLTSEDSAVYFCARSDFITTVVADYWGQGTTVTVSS VL: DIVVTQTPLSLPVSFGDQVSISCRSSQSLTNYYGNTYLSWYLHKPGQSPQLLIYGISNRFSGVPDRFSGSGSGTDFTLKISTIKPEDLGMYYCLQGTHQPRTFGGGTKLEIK ?
308 MFI
